# System: NEK11
# measurement conditions: concentration: 1 μM, replicates: in singlicate; n = 1;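 further: KINOMEscan kinase panel screen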
# %Inh per entry
endpoint label: %Inh

compound=c1ccc(-c2ccnc3[nH]ccc23)cc1 experimental_result=0%
compound=COc1nccc(-c2c(-c3ccc(F)cc3)ncn2CCCN2CCOCC2)n1 experimental_result=2%
compound="Cn1cncc1C(=O)NC1CCN(c2ccnc(Nc3ccc(F)cc3)n2)C1 (stereo not drawn)" experimental_result=0%
compound=Cn1cnc2c(N)ncnc21 experimental_result=0%
compound="COC(=O)c1cccc(NC(=O)NC2CCN(c3ccnc(Nc4ccc(F)cc4)n3)C2)c1 (stereo not drawn)" experimental_result=0%
compound=CS(=O)(=O)Cc1ccc(Nc2nccc(-c3c(-c4cccc(NC(=O)C5CCCCC5)c4)nn4ncccc34)n2)cc1 experimental_result=15%
compound=O=C(Nc1n[nH]c2nc(-c3cccs3)c(Br)cc12)C1CCCC1 experimental_result=0%
compound=Cc1ccc(-c2nc(Nc3ccncc3)c3ccccc3n2)s1 experimental_result=0%
compound=NS(=O)(=O)c1cccc(N/C=C2\C(=O)Nc3ccc(S(=O)(=O)Cc4c(Cl)cccc4Cl)cc32)c1 experimental_result=0%

====

# Tested on: FLT4
# measurement conditions: concentration: 1 μM, replicates: in singlicate; n = 1
endpoint label: %Inh (%)

compound="O=C(Nc1n[nH]c2nc(-c3cccs3)c(Br)cc12)C1CCCC1 [SB-743341]" experimental_result=0
compound="CC[C@@H]1CO[C@H](C(=O)Nc2ccccc2)CN1c1cc(-c2ccc3c(N)n[nH]c3c2)nc(NC)n1 [GSK2376236]" experimental_result=20
compound="CC(C)c1ccc(O)cc1Nc1ccnc2ccc(C(F)(F)F)cc12 [GW482059]" experimental_result=10
compound="Fc1ccc(-c2nn3cccc(F)c3c2-c2ccncc2)cc1 [GW475620]" experimental_result=25
compound="O=C(Nc1n[nH]c2cc(-c3ccsc3)ccc12)C1CC1 [SB-732932]" experimental_result=0
compound="Cc1ccc(NC(=O)Nc2ccc(Cl)cc2)cc1-c1ccc(C(=O)Nc2ccncc2)cc1 [GSK1398472]" experimental_result=0
compound="CNc1nc(-c2ccc3c(N)n[nH]c3c2)cc(N2C[C@@H](C(=O)NC3CCCCC3)OC[C@H]2C)n1 [GSK2375584]" experimental_result=0
compound=CNCc1ccc2nc(NC(=O)c3ccc(C(C)(C)C)cc3)cn2c1 experimental_result=29
compound=COc1ccc(-c2coc3ccc(-c4nnc(C)o4)cc23)cc1 experimental_result=0

====

# Tested on: NEK11
# measurement conditions: concentration: 1 μM, replicates: in singlicate; n = 1
Label rule, in plain words: %Inh of 2% and up is 1, under 2% is 0.

compound=FC(F)(F)c1ccccc1-c1cc(-c2c[nH]nc2-c2ccccn2)ccn1 classification=1
compound="COC(=O)C(Cc1ccccc1)NC(=O)NC1CCN(c2ccnc(Nc3ccc(F)cc3)n2)C1 (stereo not drawn)" classification=1
compound=CS(=O)(=O)CCNCc1nc(-c2ccc3ncnc(Nc4ccc(OCc5ccccc5)c(Cl)c4)c3c2)cs1.Cl classification=1
compound=Cc1ccc(NC(=O)Nc2ccc(Cl)c(C(F)(F)F)c2)cc1-c1ccc(C(=O)Nc2ccncc2)cc1 classification=0
compound=COc1ccc(CSc2nnc(-c3ccc4nccn4c3)o2)cc1C(F)(F)F classification=0
compound=CNc1nc(-c2ccc3c(N)n[nH]c3c2)cc(N2C[C@@H](C(=O)Nc3ccccc3)CC[C@H]2C)n1 classification=0
compound=COc1cc2ncnc(Nc3cccc(Br)c3)c2cc1OC.Cl classification=1
compound=Fc1ccc(-c2nn3cccc(F)c3c2-c2ccncc2)cc1 classification=0

====

# %Inh per entry
# Tested on: HCK
# measurement conditions: concentration: 1 μM, replicates: in singlicate; n = 1
endpoint label: %Inh

molecule="COc1cccc(CNC(=O)NC2CCN(c3ccnc(Nc4ccc(F)cc4)n3)C2)c1 (stereo not shown)" endpoint_label=%Inh experimental_result=0%
molecule=CNc1nc(-c2ccc3c(N)n[nH]c3c2)cc(N2C[C@@H](C(=O)Nc3ccccc3)CC[C@H]2C)n1 endpoint_label=%Inh experimental_result=0%
molecule=Nc1nccc(-c2c(-c3ccc(F)cc3)ncn2C2CCN(Cc3ccccc3)CC2)n1 endpoint_label=%Inh experimental_result=9%
molecule=O=C(Nc1n[nH]c2cc(-c3ccsc3)ccc12)C1CC1 endpoint_label=%Inh experimental_result=0%

====

# System: RSK2(Kin.Dom.1-N-terminal)
# Construct: gene RPS6KA3
# measurement conditions: concentration: 1 μM, replicates: in singlicate; n = 1
endpoint label: %Inh (%)

compound="CC[C@@H]1CO[C@H](C(=O)Nc2ccccc2)CN1c1cc(-c2ccc3c(N)n[nH]c3c2)nc(NC)n1 [GSK2376236]" experimental_result=0
compound="Cn1cncc1C(=O)NC1CCN(c2ccnc(Nc3ccc(F)cc3)n2)C1 (stereo not drawn) [GSK1379717]" experimental_result=5
compound="Cc1cccc2c(-c3ccncn3)c(-c3ccc(F)cc3)nn12 [GW515532]" experimental_result=9
compound="Cc1ccc(NC(=O)Nc2ccc(Cl)cc2)cc1-c1ccc(C(=O)Nc2ccncc2)cc1 [GSK1398472]" experimental_result=2
compound="Cc1ccccc1Cn1ccn2c(=O)cc(N3CCOCC3)nc12 [GSK2269905]" experimental_result=9
compound="Fc1ccc(-c2nc[nH]c2-c2ccncc2)cc1 [SB-217360]" experimental_result=34
compound=COc1ccc(-c2coc3ccc(-c4nnc(C)o4)cc23)cc1 experimental_result=0
compound="Cc1ccc(-c2nc(Nc3ccncc3)c3ccccc3n2)s1 [GSK189015]" experimental_result=7
compound="O=c1cc(N2CCOCC2)nc2n(Cc3ccccc3F)ccn12 [GSK2297428]" experimental_result=0

====

# %Inh per entry
# Test system: PDGFRB
# measurement conditions: concentration: 1 μM, replicates: in singlicate; n = 1
endpoint label: %Inh (%)

molecule="COC(=O)c1cccc(NC(=O)NC2CCN(c3ccnc(Nc4ccc(F)cc4)n3)C2)c1 (stereo not drawn)" study_system=PDGFRB experimental_result=36
molecule=COc1ccc(CSc2nnc(-c3ccc4nccn4c3)o2)cc1C(F)(F)F study_system=PDGFRB experimental_result=0
molecule=Cc1ccccc1Cn1ccn2c(=O)cc(N3CCOCC3)nc12 study_system=PDGFRB experimental_result=13
molecule=CS(=O)(=O)CCNCc1nc(-c2ccc3ncnc(Nc4ccc(OCc5ccccc5)c(Cl)c4)c3c2)cs1.Cl study_system=PDGFRB experimental_result=8
molecule=Nc1cccc(-c2ccc3c(N)n[nH]c3c2)n1 study_system=PDGFRB experimental_result=18
molecule=CC(=O)c1c(C)c2cnc(Nc3ccn(C)n3)nc2n(C2CCCC2)c1=O study_system=PDGFRB experimental_result=0
molecule=COc1ccc(CSc2nnc(-c3ccc4c(c3)CCO4)o2)cc1 study_system=PDGFRB experimental_result=0
molecule=Cc1ccccc1-c1cc(-c2c[nH]nc2-c2ccccn2)ccn1 study_system=PDGFRB experimental_result=41
molecule=CNC(=O)c1ccc(C)c(-n2c(C)cc(OCc3ccc(F)cc3F)c(Br)c2=O)c1 study_system=PDGFRB experimental_result=0
molecule=Cc1ccc(NC(=O)c2ccc(Cl)cc2)cc1-c1ccc(C(=O)Nc2ccncc2)cc1 study_system=PDGFRB experimental_result=100
molecule=Cc1nccc(-c2c(-c3ccc(F)cc3)ncn2CCCN2CCOCC2)n1.Cl study_system=PDGFRB experimental_result=0
molecule=O=c1cc(N2CCOCC2)nc2n(Cc3ccccc3F)ccn12 study_system=PDGFRB experimental_result=8
molecule="O=C(Nc1n[nH]c2nc(-c3ccco3)c(Br)cc12)C1CCN(Cc2ccccc2)C1.O=C(O)[C@H](O)[C@@H](O)C(=O)O (stereo not drawn)" study_system=PDGFRB experimental_result=30
molecule=COc1ccc(-c2coc3ccc(-c4nnc(C)o4)cc23)cc1 study_system=PDGFRB experimental_result=0
molecule=COc1cccc(NC(=O)Nc2ccc(C)c(-c3ccc(C(=O)Nc4ccncc4)cc3)c2)c1 study_system=PDGFRB experimental_result=100
molecule=COc1ccc(CSc2nnc(-c3ccc4ncsc4c3)o2)cc1C(F)(F)F study_system=PDGFRB experimental_result=0
molecule=c1ccc(-c2ccnc3[nH]ccc23)cc1 study_system=PDGFRB experimental_result=0
molecule=Cc1ccc(NC(=O)Nc2ccc(Cl)c(C(F)(F)F)c2)cc1-c1ccc(C(=O)Nc2ccncc2)cc1 study_system=PDGFRB experimental_result=97.5
molecule=Cc1ccc(NC(=O)Nc2ccc(Cl)cc2)cc1-c1ccc(C(=O)Nc2ccncc2)cc1 study_system=PDGFRB experimental_result=99.7
molecule=COc1cc2ncnc(Nc3cccc(Br)c3)c2cc1OC.Cl study_system=PDGFRB experimental_result=16
molecule=Cc1cccc2c(-c3ccncn3)c(-c3ccc(F)cc3)nn12 study_system=PDGFRB experimental_result=10
molecule=CC(C)c1ccc(O)cc1Nc1ccnc2ccc(C(F)(F)F)cc12 study_system=PDGFRB experimental_result=10
molecule="COc1ccc(Nc2nccc(N3CCC(NC(=O)c4cc5ccccc5s4)C3)n2)cc1 (stereo not drawn)" study_system=PDGFRB experimental_result=26
molecule=CCc1ccc(-c2ccc3c(c2)-c2n[nH]cc2S(=O)(=O)N3C)cc1 study_system=PDGFRB experimental_result=7
molecule=CS(=O)(=O)CCNCc1nc(-c2ccc3ncnc(Nc4ccc5c(cnn5Cc5ccccc5)c4)c3c2)cs1.Cl.Cl study_system=PDGFRB experimental_result=10
molecule="COC(=O)C(Cc1ccccc1)NC(=O)NC1CCN(c2ccnc(Nc3ccc(F)cc3)n2)C1 (stereo not drawn)" study_system=PDGFRB experimental_result=23
molecule=FC(F)(F)c1ccccc1-c1cc(-c2c[nH]nc2-c2ccccn2)ccn1 study_system=PDGFRB experimental_result=19
molecule=CNc1nc(-c2ccc3c(N)n[nH]c3c2)cc(N2C[C@@H](C(=O)Nc3ccccc3)CC[C@H]2C)n1 study_system=PDGFRB experimental_result=10
molecule="COC(=O)C(NC(=O)NC1CCN(c2ccnc(Nc3ccc(F)cc3)n2)C1)c1ccccc1 (stereo not drawn)" study_system=PDGFRB experimental_result=38
molecule=CC(C)c1cc(-c2ccc3c(N)n[nH]c3c2)nc(N)n1 study_system=PDGFRB experimental_result=18
molecule=CS(=O)(=O)Cc1ccc(Nc2nccc(-c3c(-c4cccc(NC(=O)C5CCCCC5)c4)nn4ncccc34)n2)cc1 study_system=PDGFRB experimental_result=93.9
molecule=COc1nccc(-c2c(-c3ccc(F)cc3)ncn2CCCN2CCOCC2)n1 study_system=PDGFRB experimental_result=0
molecule=Fc1ccc(-c2nc3n(c2-c2ccncc2)CCS3)cc1 study_system=PDGFRB experimental_result=16
molecule="COC(=O)c1cccc(NC(=O)NC2CCN(c3ccnc(Nc4ccc(OC)cc4)n3)C2)c1 (stereo not drawn)" study_system=PDGFRB experimental_result=35
molecule=CNCc1ccc2nc(NC(=O)c3ccc(C(C)(C)C)cc3)cn2c1 study_system=PDGFRB experimental_result=74
molecule=COc1ccc2cc(-c3nc(-c4ccccc4C(C)C)[nH]c3-c3ccncc3)ccc2c1 study_system=PDGFRB experimental_result=7
